- Experimental Target: PHM (Rattus norvegicus)
- Sequence (P14925 36-715 isoform P14925-2 limits assumed): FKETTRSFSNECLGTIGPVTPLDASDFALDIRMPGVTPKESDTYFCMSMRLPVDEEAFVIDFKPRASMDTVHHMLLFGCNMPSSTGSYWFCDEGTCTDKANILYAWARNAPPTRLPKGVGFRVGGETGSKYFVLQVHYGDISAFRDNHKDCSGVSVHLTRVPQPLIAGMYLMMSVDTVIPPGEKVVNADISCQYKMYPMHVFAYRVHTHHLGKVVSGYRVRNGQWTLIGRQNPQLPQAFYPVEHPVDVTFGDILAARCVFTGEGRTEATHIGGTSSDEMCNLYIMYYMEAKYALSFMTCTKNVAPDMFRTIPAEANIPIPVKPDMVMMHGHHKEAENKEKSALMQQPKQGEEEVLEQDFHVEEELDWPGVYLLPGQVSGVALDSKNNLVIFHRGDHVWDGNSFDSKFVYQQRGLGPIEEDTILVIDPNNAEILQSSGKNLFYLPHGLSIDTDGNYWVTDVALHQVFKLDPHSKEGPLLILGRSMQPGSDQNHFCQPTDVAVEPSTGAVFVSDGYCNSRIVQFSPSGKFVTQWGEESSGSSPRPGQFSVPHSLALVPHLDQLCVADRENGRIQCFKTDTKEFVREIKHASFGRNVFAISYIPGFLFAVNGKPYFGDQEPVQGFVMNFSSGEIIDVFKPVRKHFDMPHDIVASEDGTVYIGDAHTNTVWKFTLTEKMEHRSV
Catalogue of Ki values
Quick note: give the figure in µM, leave out the unit.

Line Notation: O=C(O)C=Cc1ccc2c(c1)OCO2
Quantity Name: Ki
Number: 300

Line Notation: Nc1ccc(C=CC(=O)O)cc1
Quantity Name: Ki
Number: 500

Moving on to another compound below.
Determine its reported Ki: `O=C(O)C=Cc1ccccc1C(F)(F)F`
200
